Reported inhibition values are given for each entry in this list.
# target_desc: Mannose-6-phosphate isomerase (Homo sapiens) (UniProt P34949)
# Sequence (P34949 whole entry, looked up): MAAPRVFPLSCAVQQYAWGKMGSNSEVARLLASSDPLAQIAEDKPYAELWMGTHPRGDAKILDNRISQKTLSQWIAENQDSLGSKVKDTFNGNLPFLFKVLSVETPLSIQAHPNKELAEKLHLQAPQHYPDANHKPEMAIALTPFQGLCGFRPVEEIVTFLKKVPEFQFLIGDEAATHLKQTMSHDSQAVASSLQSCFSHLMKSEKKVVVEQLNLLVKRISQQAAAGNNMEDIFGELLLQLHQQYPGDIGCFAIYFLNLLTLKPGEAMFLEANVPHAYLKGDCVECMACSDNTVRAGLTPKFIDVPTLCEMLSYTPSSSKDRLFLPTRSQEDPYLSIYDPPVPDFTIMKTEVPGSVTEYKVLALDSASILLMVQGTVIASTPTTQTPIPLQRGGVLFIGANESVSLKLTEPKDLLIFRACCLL
# test_details: MPI inhibition at elevated mannose 6-phosphate – biochemical, fluorescence intensity, high mannose 6-phosphate, primary screen (AID 1220)
# condition_description: recombinant PMI enzyme, coupled fluorescence intensity; at 20 µM; stronger effect = higher value
Among all 190,000 compounds or so, about 1,300 (0.68%) were called active. Many of the other results were omitted from the sample, so actives are more common in it than they were.

{"columns": ["molecule", "inhibition, %"],
 "data": [
  ["O=C(CNc1ccc2ccccc2c1)N/N=C/c1cc2ccccc2nc1Cl", 67.5],
  ["O=C(Oc1cccc2cccnc12)c1cccc([N+](=O)[O-])c1", 44.3],
  ["Cc1ccc(NC(=S)N2CCCN(Cc3ccc(F)cc3)C2)c(C)c1", -3.7],
  ["CS(=O)(=O)N1CCN(c2ccccc2NC(=O)CSc2nnc(-c3ccco3)o2)CC1", 0.5],
  ["CCOc1ccc(C(=O)CC(Sc2ccc(C)cc2)C(=O)O)cc1 (stereo not given)", -4],
  ["NC(=O)c1ccc(Oc2cccc3cccnc23)c([N+](=O)[O-])c1", 50.2],
  ["O=C(NCCN1CCN(c2ccccc2)CC1)C1(S(=O)(=O)c2ccc(Cl)cc2)CC1", 18],
  ["Cc1cc(C)n(CCN(C)c2nc3nonc3nc2NC2CC2)n1", 14.8],
  ["CCOc1ccc(-c2csc(NC(=O)CSC3=NC(=O)CN3C(C)=O)n2)c2ccccc12", 14.8],
  ["O=[N+]([O-])c1ccc(Oc2cccc3cccnc23)c([N+](=O)[O-])c1", 11.4]
]}

---

# target_desc: Mannose-6-phosphate isomerase (Homo sapiens)
# test_details: MPI inhibition at elevated mannose 6-phosphate – biochemical, fluorescence intensity, high mannose 6-phosphate, primary screen (AID 1220)
# condition_description: recombinant PMI enzyme, coupled fluorescence intensity; at 20 µM; stronger effect = higher value
Out of some 190,000 compounds screened, about 1,300 (0.68%) were called active. This excerpt belongs to a sample that is enriched for actives.
readout_label: inhibition (%)

{"columns": ["compound", "output_unit", "result"],
 "data": [
  ["COc1ccc2c(c1)c1ncn(Cc3ccco3)c(=O)c1n2C", "%", 0.7],
  ["CCc1ccc(NC(=S)Nc2cccc3cnccc23)cc1", "%", 51.5],
  ["Cc1ccc(-c2cc(C(=O)O)c3cc(Br)ccc3n2)o1", "%", -44.6],
  ["CN(CCO)c1cc(N2CCCCC2)c2nonc2c1[N+](=O)[O-]", "%", 42.4],
  ["CC1CCCN(c2cc(N(C)CCO)c([N+](=O)[O-])c3nonc23)C1 (stereo unspecified)", "%", 18],
  ["CN(CCO)c1cc(N2CCC3(CC2)OCCO3)c2nonc2c1[N+](=O)[O-]", "%", 34.9],
  ["CCOC(=O)CCCNC(=O)COC(=O)c1cccc(C)c1O", "%", -3.7],
  ["CC(=O)Nc1ccc2nc(NC(=O)COc3ccc([N+](=O)[O-])cc3)sc2c1", "%", 9.4],
  ["O=[N+]([O-])c1c(NCCCO)cc(N2CCN(Cc3ccc4c(c3)OCO4)CC2)c2nonc12", "%", 45.2],
  ["CC(=O)N(C)c1ccc(NC(=S)Nc2cccc3ccccc23)cc1", "%", 55.1],
  ["COc1ccc(CNC(=O)CSc2nnc3c(Cl)cc(C(F)(F)F)cn23)cc1OC", "%", 12.9]
]}

---

# target_desc: Mannose-6-phosphate isomerase (Homo sapiens)
# test_details: MPI inhibition at elevated mannose 6-phosphate – biochemical, fluorescence intensity, high mannose 6-phosphate, primary screen (AID 1220)
# condition_description: recombinant PMI enzyme, coupled fluorescence intensity; at 20 µM
The campaign covered roughly 190,000 compounds. About 1,300 (0.68%) were called active. No stated cut-off is given here; in the data, active means inhibition above about 50%; inactive means the rest. This excerpt belongs to a sample that is enriched for actives.
Possible outcomes: active, inactive

{"columns": ["molecule", "assigned_category"],
 "data": [
  ["CCNC(=S)N(Cc1ccco1)Cc1cc2cc3c(cc2[nH]c1=O)OCCO3", "inactive"],
  ["COCCn1c(N)c(C(=O)OCc2ccccc2)c2nc3ccccc3nc21", "inactive"],
  ["O=c1c2ccccc2sn1-c1cc(S(=O)(=O)N2CCOCC2)ccc1N1CCOCC1", "active"],
  ["CNC(=S)N(Cc1ccco1)Cc1cc2cc3c(cc2[nH]c1=O)OCCO3", "active"],
  ["COCCn1c(N)c(C(=O)NCc2cccs2)c2nc3ccccc3nc21", "active"],
  ["COCCn1c(N)c(C(=O)NCC2CCCO2)c2nc3ccccc3nc21 (stereo unspecified)", "active"],
  ["OC(COC1CCCCC1)CN1CCN(c2ccccc2)CC1 (stereo unspecified)", "inactive"],
  ["CC(C)CNC(=S)N(Cc1ccco1)Cc1cc2cc3c(cc2[nH]c1=O)OCCO3", "inactive"],
  ["Cc1cccc(C(=O)Oc2ccccc2-c2nnco2)c1", "inactive"],
  ["Cc1cc(C)n2c(Nc3ccc4c(c3)OCCO4)c(-c3ccc(C)o3)nc2n1", "inactive"],
  ["Nc1c(C(=O)NCc2ccccc2)c2nc3ccccc3nc2n1CCCN1CCOCC1", "inactive"]
]}

---

# target_desc: Mannose-6-phosphate isomerase (Homo sapiens)
# test_details: MPI inhibition at elevated mannose 6-phosphate – biochemical, fluorescence intensity, high mannose 6-phosphate, primary screen (AID 1220)
# condition_description: recombinant PMI enzyme, coupled fluorescence intensity; at 20 µM
Out of some 190,000 compounds screened, about 1,300 (0.68%) were called active. Cut-off read from the data, not from the text of the source: active = inhibition above about 50%; inactive = the rest. The full list was thinned out, with actives kept by preference.
Possible outcomes: active, inactive

{"columns": ["structure_notation", "assigned_category"],
 "data": [
  ["COCCn1c(C)cc(C(=O)COc2cccnc2[N+](=O)[O-])c1C", "active"],
  ["Cc1ccc(OCC(=O)c2ccc(Cl)s2)c([N+](=O)[O-])n1", "active"],
  ["COCCn1c(C)cc(C(=O)COc2ccc(C)nc2[N+](=O)[O-])c1C", "active"],
  ["Cc1ccc(OCC(=O)c2cc(C)c(C)cc2C)c([N+](=O)[O-])n1", "inactive"],
  ["CCCn1c(C)cc(C(=O)COc2ccc(C)nc2[N+](=O)[O-])c1C", "inactive"],
  ["Cc1cc(C)c(C(=O)COc2cccnc2[N+](=O)[O-])cc1C", "inactive"]
]}

---

# target_desc: Mannose-6-phosphate isomerase (Homo sapiens) (UniProt P34949)
# test_details: MPI inhibition at elevated mannose 6-phosphate – biochemical, fluorescence intensity, high mannose 6-phosphate, primary screen (AID 1220)
# condition_description: recombinant PMI enzyme, coupled fluorescence intensity; at 20 µM; stronger effect = higher value
The campaign covered roughly 190,000 compounds. About 1,300 (0.68%) were called active. The sample as a whole holds a higher share of actives than the screen did.
Reported inhibition values are given for each entry in this list.
readout_label: inhibition (%)

{"columns": ["molecule", "target_desc", "result"],
 "data": [
  ["COc1cccc(OC)c1C(=O)Nc1ccc(NC(=O)c2ccco2)cc1", "Mannose-6-phosphate isomerase (Homo sapiens) (UniProt P34949)", 3.3],
  ["CCC(=O)N(C1=C(NC)C(=O)c2ccccc2C1=O)C(C)C", "Mannose-6-phosphate isomerase (Homo sapiens) (UniProt P34949)", 62.3],
  ["Cc1cc(N2CCOCC2)nc2ccc(NC(=O)C3CCC(C)CC3)cc12 (stereo not drawn)", "Mannose-6-phosphate isomerase (Homo sapiens) (UniProt P34949)", 0.8],
  ["CCOc1cc(NC(=S)NCCCN2CCOCC2)c(OCC)cc1NC(=O)c1ccccc1", "Mannose-6-phosphate isomerase (Homo sapiens) (UniProt P34949)", 24.1],
  ["O=C(CN(C(=O)CNC(=O)c1cccs1)c1ccc2c(c1)OCCO2)NC1CCCC1", "Mannose-6-phosphate isomerase (Homo sapiens) (UniProt P34949)", 4.5],
  ["Nc1c(C(=O)Nc2ccccc2F)sc2nc(-c3ccco3)ccc12", "Mannose-6-phosphate isomerase (Homo sapiens) (UniProt P34949)", 59.6],
  ["CCCn1c(=O)c2c(nc(Br)n2CCC)n(C)c1=O", "Mannose-6-phosphate isomerase (Homo sapiens) (UniProt P34949)", -0.3],
  ["COc1ccc(N=Cc2sc(O)c3ccccc23)cc1", "Mannose-6-phosphate isomerase (Homo sapiens) (UniProt P34949)", 8.8],
  ["Cc1ccc2nc(N3CCCCC3)c(C=O)c(=O)n2c1", "Mannose-6-phosphate isomerase (Homo sapiens) (UniProt P34949)", -6.8],
  ["Nc1ccccc1C(=O)N1CCCC1", "Mannose-6-phosphate isomerase (Homo sapiens) (UniProt P34949)", 8.2],
  ["COc1ccc(NC2SC(=O)N(CC(=O)O)C2=O)cc1 (stereo not drawn)", "Mannose-6-phosphate isomerase (Homo sapiens) (UniProt P34949)", 12.1],
  ["CCSc1nnc(NC(=O)C(C)(C)C)s1", "Mannose-6-phosphate isomerase (Homo sapiens) (UniProt P34949)", 2],
  ["CCOc1cc(NC(=S)NCCCN2CCOCC2)c(OCC)cc1NC(=O)c1ccc(C)cc1", "Mannose-6-phosphate isomerase (Homo sapiens) (UniProt P34949)", 52.6],
  ["Cc1cc(C)cc(NC(=S)NCC2CCN(C(C)c3ccccc3)C2)c1 (stereo not drawn)", "Mannose-6-phosphate isomerase (Homo sapiens) (UniProt P34949)", -1.3],
  ["Oc1[nH]c2ccccc2c1C=Nc1ccc2c(c1)OCO2", "Mannose-6-phosphate isomerase (Homo sapiens) (UniProt P34949)", 8.6],
  ["Fc1ccc(-n2nnc(-c3cccnc3)n2)cc1", "Mannose-6-phosphate isomerase (Homo sapiens) (UniProt P34949)", -1.8],
  ["COc1ccc(N2CCN(c3nc4ccccn4c(=O)c3C=O)CC2)cc1", "Mannose-6-phosphate isomerase (Homo sapiens) (UniProt P34949)", 42.4],
  ["Cc1ccc(N(Cc2ccc([N+](=O)[O-])cc2)C(=O)c2ccco2)cc1C", "Mannose-6-phosphate isomerase (Homo sapiens) (UniProt P34949)", 4.7],
  ["O=C(NCc1ccccn1)c1cccs1", "Mannose-6-phosphate isomerase (Homo sapiens) (UniProt P34949)", 4.7],
  ["CCOc1cc(NC(=S)NCCCN2CCOCC2)c(OCC)cc1NC(=O)c1cccs1", "Mannose-6-phosphate isomerase (Homo sapiens) (UniProt P34949)", 56.1],
  ["CCSc1nnc(-c2ccccc2N)c(=O)[nH]1", "Mannose-6-phosphate isomerase (Homo sapiens) (UniProt P34949)", -2],
  ["O=C(COC(=O)c1ccccc1)Nc1cc(Cl)ccc1Oc1ccccc1", "Mannose-6-phosphate isomerase (Homo sapiens) (UniProt P34949)", 0.2],
  ["Cc1cc(O)ccc1Nc1nc(-c2sc(N)nc2C)cs1", "Mannose-6-phosphate isomerase (Homo sapiens) (UniProt P34949)", 2],
  ["CCOc1cc(NC(=S)NCCCN2CCOCC2)c(OCC)cc1NC(=O)c1ccccc1C", "Mannose-6-phosphate isomerase (Homo sapiens) (UniProt P34949)", 47.3],
  ["COc1cc(OC)nc(Oc2ccccc2C(=O)Oc2cccc(C)c2)n1", "Mannose-6-phosphate isomerase (Homo sapiens) (UniProt P34949)", 7],
  ["CC(C)C(NC(=O)c1ccc(Br)cc1)C(=O)NC1=NCCS1 (stereo not drawn)", "Mannose-6-phosphate isomerase (Homo sapiens) (UniProt P34949)", -3],
  ["CC1=CCC2COC(c3ccc[n+](Cc4ccccc4)c3)C1C2 (stereo not drawn)", "Mannose-6-phosphate isomerase (Homo sapiens) (UniProt P34949)", 43.6],
  ["CCOc1cc(NC(=O)c2cccs2)c(OCC)cc1NC(=O)CCC(=O)NCCN1CCOCC1", "Mannose-6-phosphate isomerase (Homo sapiens) (UniProt P34949)", 10.6],
  ["Cc1ccccc1NC(=S)NC12CN3CN(CN(C3)C1)C2", "Mannose-6-phosphate isomerase (Homo sapiens) (UniProt P34949)", 1.3],
  ["CCC(=O)NC(=S)Nc1cccc(NC(=O)c2ccco2)c1", "Mannose-6-phosphate isomerase (Homo sapiens) (UniProt P34949)", 9.6],
  ["COc1cc(OC)cc(C(=O)N2CCCc3ccccc32)c1", "Mannose-6-phosphate isomerase (Homo sapiens) (UniProt P34949)", 12.7],
  ["COc1ccc(NC(=O)c2ccco2)cc1NC(=O)c1ccco1", "Mannose-6-phosphate isomerase (Homo sapiens) (UniProt P34949)", 4.5],
  ["N#Cc1ccccc1S(=O)(=O)N1CCN(CC(O)c2ccccc2)CC1 (stereo not drawn)", "Mannose-6-phosphate isomerase (Homo sapiens) (UniProt P34949)", -12.7],
  ["CCC(=O)N(CC)C1=C(O)c2ccccc2C(=O)C1=O", "Mannose-6-phosphate isomerase (Homo sapiens) (UniProt P34949)", 15.9],
  ["Cc1ccc(OCCOc2ccc(Br)cc2/C=N\\NC(N)=O)cc1", "Mannose-6-phosphate isomerase (Homo sapiens) (UniProt P34949)", 4],
  ["CC(C)NC1=C(Cl)C(=O)c2ccccc2C1=O", "Mannose-6-phosphate isomerase (Homo sapiens) (UniProt P34949)", -32],
  ["O=C(c1cccc2cccc(O)c12)N1CCCCC1", "Mannose-6-phosphate isomerase (Homo sapiens) (UniProt P34949)", 63.7],
  ["CCc1cccc(NC(=O)Cn2cc(C=O)c3ccccc32)c1", "Mannose-6-phosphate isomerase (Homo sapiens) (UniProt P34949)", -9.7],
  ["COc1cc(NC(=O)C2CCCCC2)c2ncccc2c1", "Mannose-6-phosphate isomerase (Homo sapiens) (UniProt P34949)", 4.2],
  ["COc1ccc(N2CCN(c3nc4ccc(C)cn4c(=O)c3C=O)CC2)cc1", "Mannose-6-phosphate isomerase (Homo sapiens) (UniProt P34949)", 56.9],
  ["COc1cc2cnc(Cl)nc2cc1OC", "Mannose-6-phosphate isomerase (Homo sapiens) (UniProt P34949)", 54.8],
  ["COc1ccc(N=CC2=C(O)c3ccccc3C2=O)cc1", "Mannose-6-phosphate isomerase (Homo sapiens) (UniProt P34949)", 5.6],
  ["Cc1c(Cl)cccc1NC(=O)CSc1nnc(CCNC(=O)OC(C)(C)C)o1", "Mannose-6-phosphate isomerase (Homo sapiens) (UniProt P34949)", 3.7],
  ["COc1c(C(=O)NCCSC(C)(C)C)ccc2ccccc12", "Mannose-6-phosphate isomerase (Homo sapiens) (UniProt P34949)", 2.8],
  ["Cc1ccc(C)c(S(=O)(=O)N/N=C2/CCCc3ccccc32)c1", "Mannose-6-phosphate isomerase (Homo sapiens) (UniProt P34949)", -29.2],
  ["COc1cccc(C=Nc2ccc3c(c2)OCCO3)c1O", "Mannose-6-phosphate isomerase (Homo sapiens) (UniProt P34949)", 34.6],
  ["CN(c1ccc(O)cc1)c1nc(-c2ccccc2)cs1", "Mannose-6-phosphate isomerase (Homo sapiens) (UniProt P34949)", 25.1],
  ["CC1(C)CC(=O)C(C=Nc2ccc3c(c2)OCO3)=C(O)C1", "Mannose-6-phosphate isomerase (Homo sapiens) (UniProt P34949)", 14.2]
]}
